Cited source: patent US20250129150A1

biological target: hIL-13 (human, UniProt P35225 35-146, limits assumed); assay: cell-based or functional assay
Sequence (P35225 other isoform, or with tags, fused parts or gaps limits assumed): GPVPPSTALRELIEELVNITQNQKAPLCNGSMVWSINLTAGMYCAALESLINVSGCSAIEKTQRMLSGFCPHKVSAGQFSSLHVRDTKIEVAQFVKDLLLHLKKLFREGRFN
readout-label: TARC Release IC50 (A549 cells)
Please provide the amount together with its unit, number first.

Inquiry: Recorded TARC Release IC50 (A549 cells) of Construct 114 (antibody, human IgG1, kappa, V domains shown) VH: EVQLLESGGGLVQPGGSLRLSCAASGFSLNQYSVNWVRQAPGKGLEWLGMIWGDGKIVYNSALKSRLTISKDSSKNTVYLQMNSLRAEDTAVYYCAGDGYYPYAMDNWGQGTTVTVSS VL: DIQLTQSPSSLSASVGDRVTITCRASKSVDSYGNSFMHWYQQKPGKAPKLLIYLASNLESGVPSRFSGSGSGTDFTLTISSLQPEDFATYYCQQNNEDPRTFGGGTKVEIKR , please.
Reply text: 1.1 nM
